- Test system: FB
- ASSAY_OVERVIEW: Euclidean distance of Cell Painting phenotypic profile (signed KS, 77 features) to DMSO centroid (dimensionless distance); 5 or 10 uM (library dependent); higher = stronger phenotypic change vs DMSO (phenoactivity)
- TEST_CONTEXT: 48 h
Structures can show the parent of a compound that is named as a salt.
QUANTITY_MEASURED: Euclidean distance
One number for each entry.

Some solved cases for reference:
CC(=O)c1cc2c(o1)C(=O)c1ccccc1C2=O | 3.91
CCCCC(=O)O[C@H]1CC[C@H]2[C@@H]3CCc4cc(O)ccc4[C@H]3CC[C@]12C [Estradiol valerate] | 0.885
Nc1ccc2cc3ccc(N)cc3nc2c1 [Proflavine Hemisulfate] | 5.65

List the reported Euclidean distance of each molecule below.
1. CCN(CC)Cc1ccc2cc(COC(=O)Nc3ccc(C(=O)NO)cc3)ccc2c1
2. CC(C)(Sc1cc(C(C)(C)C)c(O)c(C(C)(C)C)c1)Sc1cc(C(C)(C)C)c(O)c(C(C)(C)C)c1
3. CN1CCC(=C2c3ccccc3CCn3c(C=O)cnc32)CC1
4. CC(C)(C#N)c1cc(Cn2cncn2)cc(C(C)(C)C#N)c1
5. CCCCS(=O)(=O)N[C@@H](Cc1ccc(OCCCCC2CCNCC2)cc1)C(=O)O [Tirofiban Hydrochloride]
6. COC(=O)N[C@H](C(=O)N1CCC[C@H]1c1ncc(-c2ccc(-c3ccc(-c4cnc([C@@H]5CCCN5C(=O)[C@@H](NC(=O)OC)C(C)C)[nH]4)cc3)cc2)[nH]1)C(C)C
7. O=C(/C=C/c1ccccc1)NC(NC(=S)Nc1cccc2cccnc12)C(Cl)(Cl)Cl (configuration not stated)
8. CC(=O)O[C@H]1C[C@@]2(C)[C@@H](C[C@@H](O)[C@H]3[C@@]4(C)CC[C@@H](O)[C@@H](C)[C@@H]4CC[C@@]32C)/C1=C(\CCC=C(C)C)C(=O)O [Fusidine]

## Result
3.63
0.921
1.66
0.902
1.22
1
1.21
0.84

List the reported Euclidean distance of each molecule below.
1. CC(=O)Oc1ccccc1C(=O)Nc1ncc([N+](=O)[O-])s1 [Nitazoxanide]
2. CN(C)C(=N)NC(=N)N [Metformin HCl]
3. O=C(O)CCCc1ccccc1 [Sodium Phenylbutyrate]
4. Clc1ccc(C2(c3ccc(-c4cn[nH]c4)cc3)CCNCC2)cc1
5. CC(C)Cc1ccc([C@@H](C)C(=O)NS(C)(=O)=O)cc1 [Reparixin (Repertaxin)]
6. Cc1nc(Nc2ncc(C(=O)Nc3c(C)cccc3Cl)s2)cc(N2CCN(CCO)CC2)n1 [Dasatinib]

## Result
1.68
1.26
0.829
4.67
1.09
3.41

---

Kindly state Euclidean distance for each of the entries shown.
- Test system: HEPG2
- ASSAY_OVERVIEW: Euclidean distance of Cell Painting phenotypic profile (signed KS, 77 features) to DMSO centroid (dimensionless distance); 5 or 10 uM (library dependent); higher = stronger phenotypic change vs DMSO (phenoactivity)
- TEST_CONTEXT: 48 h
Give bare numbers.

Some solved cases for reference:
CCCCC(=O)N(Cc1ccc(-c2ccccc2-c2nn[nH]n2)cc1)C(C(=O)O)C(C)C.CCOC(=O)C(C)CC(Cc1ccc(-c2ccccc2)cc1)NC(=O)CCC(=O)O (stereo unspecified) | 0.622
COc1ccc(-c2coc3cc(O)cc(O)c3c2=O)cc1 | 1.1
COc1cc2c(cc1OC)CN(CCc1ccc(NC(=O)c3cc(OC)c(OC)cc3NC(=O)c3cnc4ccccc4c3)cc1)CC2 | 0.844
COc1nc(C)nc(Cl)c1NC1=NCCN1 | 2.14
CCC[C@H](NC(=O)/C(C#N)=C/c1cccc(Br)n1)c1ccccc1 [Degrasyn (WP1130)] | 1.66

List the reported Euclidean distance of each molecule below.
1. CN1CCN(CCCN2c3ccccc3Sc3ccc(C(F)(F)F)cc32)CC1 [Trifluoperazine 2HCl]
2. CCCN(CCC)S(=O)(=O)c1ccc(C(=O)O)cc1
3. CN1[C@@H]2CC[C@H]1C[C@@H](OC(=O)c1c[nH]c3ccccc13)C2 [Tropisetron]
4. Cc1c(NC(=O)OC[C@@H]2COCCN2)cn2ncnc(Nc3ccc4c(cnn4Cc4cccc(F)c4)c3)c12
5. N#Cc1ccc2[nH]c(O)c(-c3ccc(CN4CCOCC4)cn3)c2c1
6. COc1cc2c(cc1OC)-c1cc3ccc(OC)c(OC)c3c[n+]1CC2
7. C=C[C@@H]1C[C@]1(NC(=O)[C@@H]1C[C@@H](Oc2ncc(OC)c3ccc(Cl)cc23)CN1C(=O)[C@@H](NC(=O)OC(C)(C)C)C(C)(C)C)C(=O)NS(=O)(=O)C1CC1

## Result
[3.04, 0.652, 1.1, 1.28, 1.72, 1.18, 0.47]

List the reported Euclidean distance of each molecule below.
1. COC(=O)C1=CO[C@@H](O[C@@H]2O[C@H](CO)[C@@H](O)[C@H](O)[C@H]2O)[C@@H]2[C@@H](C)[C@@H](O)C[C@H]12
2. C[C@@H](OC[C@@]1(c2ccccc2)CC[C@]2(CCC(=O)N2)CN1)c1cc(C(F)(F)F)cc(C(F)(F)F)c1
3. CN(C)CCOc1ccc(-c2nc(-c3ccncc3)c(-c3ccc4c(c3)CC/C4=N\O)[nH]2)cc1
4. C[C@@H]1O[C@@H](OC[C@H]2O[C@@H](Oc3c(-c4ccc(OCCO)c(OCCO)c4)oc4cc(OCCO)cc(O)c4c3=O)[C@H](O)[C@@H](O)[C@@H]2O)[C@H](O)[C@H](O)[C@H]1O

## Result
1: 0.691; 2: 1.3; 3: 4.66; 4: 0.509

The reported numbers originate from the supplement of paper PMC10127200.
